Below: a set of entries, each annotated with reported bioavailability at 0.1 µM.
# Assay protocol: Metabolic stability in human liver microsomes assessed as bioavailability at 0.1 uM preincubated for 10 mins followed by NADPH addition and measured upto 60 mins by LC-MS/MS analysis
# Type: ADME, Microsome
# Condition set: time < 70 min

Worked set:
{"Compound": "COCCCCNC(=O)c1cccc(C2N(c3ncccc3OC)C(=O)CS2(=O)=O)n1 (racemic)", "bioavailability at 0.1 µM": "59.3%"}
{"Compound": "COc1cccnc1N1C(=O)CS(=O)(=O)C1c1cccc(C(=O)NCCCCc2ccccc2)n1 (centres undefined)", "bioavailability at 0.1 µM": "1.94%"}
{"Compound": "Cc1ccnc(N2C(=O)CS[C@@H]2c2cccc(C(=O)NCCCCn3cccn3)c2)c1", "bioavailability at 0.1 µM": "13.2%"}

# context switch: different compound, same bioavailability at 0.1 µM
Reported bioavailability at 0.1 µM for COCCCCNC(=O)c1cccc(C2N(c3ccccn3)C(=O)CS2(=O)=O)n1 (centres undefined) : what is it?
45.8%
